SUBJECT OF TEST: ALK2R206H (mutant ALK2, N-terminally tagged with GST) (Homo sapiens, UniProt Q04771, R206H)
Sequence (Q04771 21-509 R206H): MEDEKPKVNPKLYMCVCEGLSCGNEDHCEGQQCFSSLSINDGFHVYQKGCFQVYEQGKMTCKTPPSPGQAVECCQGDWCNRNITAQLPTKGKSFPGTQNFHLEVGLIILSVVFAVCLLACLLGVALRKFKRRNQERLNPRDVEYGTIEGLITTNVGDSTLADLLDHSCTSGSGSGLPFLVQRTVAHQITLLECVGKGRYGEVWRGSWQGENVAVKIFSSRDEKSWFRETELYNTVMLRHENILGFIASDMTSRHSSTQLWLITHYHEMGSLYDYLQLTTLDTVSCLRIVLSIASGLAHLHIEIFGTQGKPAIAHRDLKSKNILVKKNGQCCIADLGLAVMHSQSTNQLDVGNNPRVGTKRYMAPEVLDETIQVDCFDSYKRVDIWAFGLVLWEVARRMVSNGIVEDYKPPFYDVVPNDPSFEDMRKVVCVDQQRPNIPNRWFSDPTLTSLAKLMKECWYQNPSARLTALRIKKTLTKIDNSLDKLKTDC
EXPERIMENTAL PROTOCOL: ALK binding assay (LANTHASCREEN TR-FRET competitive binding, displacement of Kinase Tracer 178)
COND: read-out: Binding Assay (IC50 class)
ENDPOINT LABEL: IC50

                                   molecule  value_measured
0  Cc1n[nH]c(C)c1-c1cc2c(N3CCN(C(=O)OC4COC4)CC3)ccnc2[nH]1         > 50 nM
1  Cc1ccc(-c2cc3c(N4CCN(C(=O)C5CC5)CC4)ccnc3[nH]2)cc1     10 to 50 nM
2  Cc1cc(-c2cc3c(N4CCN(C(=O)OC5COC5)CC4)ccnc3[nH]2)sn1         ≤ 10 nM
3  Cn1cnc(-c2[nH]c3nccc(N4CCN(C(=O)O[C@H]5CCC5(F)F)CC4)c3c2C#N)c1         ≤ 10 nM
4  Cn1cc(-c2cc3c(N4CCN(C(=O)C5CCOCC5)CC4)ccnc3[nH]2)cn1         ≤ 10 nM
5  CC(=O)N1CCc2sc(-c3[nH]c4nccc(N5CCN(C(=O)OC6COC6)CC5)c4c3C#N)nc2C1         ≤ 10 nM

Measured IC50, CCOC(=O)N1CCN(c2ccnc3[nH]c(-c4ncc(C#N)cn4)cc23)CC1 : ≤ 10 nM

According to the records, this molecule Cc1nc(-c2cc3c(N4CCN(C(=O)OCC(F)F)CC4)ccnc3[nH]2)cn1C displays IC50 of ≤ 10 nM

The reported value for CCN1CC[C@@H](c2ccc(-c3cc4c(N5CCN(C(=O)C6CC6)CC5)ccnc4[nH]3)cc2)C(F)(F)C1 in terms of IC50 is ≤ 10 nM

// field: IC50; key: CCc1cnc(-c2cc3c(N4CCN(C(=O)OC5COC5)CC4)ccnc3[nH]2)s1 ; value = ≤ 10 nM
